test: Tmax in healthy human by 14 day test; type: ADME, organism-based; conditions: in vivo
experimental-endpoint: Tmax

Short answer for N#Cc1ccc(-c2ccc(S(=O)(=O)Nc3cccc(N)n3)cc2)cc1 : Tmax was 1 h

----------
Molecular target: 11-beta-hydroxysteroid dehydrogenase type 2 (Homo sapiens)
Sequence (P80365 whole entry): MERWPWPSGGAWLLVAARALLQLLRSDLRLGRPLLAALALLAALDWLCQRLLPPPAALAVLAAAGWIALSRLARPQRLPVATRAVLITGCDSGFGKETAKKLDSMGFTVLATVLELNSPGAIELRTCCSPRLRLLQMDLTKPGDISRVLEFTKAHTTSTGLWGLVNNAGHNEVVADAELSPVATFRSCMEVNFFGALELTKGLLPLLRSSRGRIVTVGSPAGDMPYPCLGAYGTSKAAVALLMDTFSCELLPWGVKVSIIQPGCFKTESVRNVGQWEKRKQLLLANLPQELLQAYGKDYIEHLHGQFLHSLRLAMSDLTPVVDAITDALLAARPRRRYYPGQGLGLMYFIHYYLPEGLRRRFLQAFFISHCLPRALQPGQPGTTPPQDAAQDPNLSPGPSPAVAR
pIC50: −log10 of the molar value.
Each entry below carries its recorded pIC50.

The cases that follow already have their pIC50 on record.
Cc1c(Cl)cccc1S(=O)(=O)Nc1nc(CC(=O)N2CCN(C)CC2)cs1	< 5.00
C1CCc2nnc(C34CC5CC(CC(C5)C3)C4)n2CC1	< 5.52

Shift focus to the following entry.
Field pIC50 (entry CCN(CC)C(=O)Cc1csc(NS(=O)(=O)c2cccc(Cl)c2C)n1 ) reads < 5.00

----------
experiment: Elimination half life in healthy human by 14 day test; format: ADME, organism-based; settings: in vivo, read-out: beta t1/2 (converted)
experimental-endpoint: half-life (h)
Numeric only. Scale: h

Documented half-life of N#Cc1ccc(-c2ccc(S(=O)(=O)Nc3cccc(N)n3)cc2)cc1 : 30

----------
target: 11-beta-hydroxysteroid dehydrogenase 1 (Rattus norvegicus, UniProt P16232); assay: Inhibition of rat 11beta-HSD1 expressed in HEK293 cells
Sequence (P16232 whole entry): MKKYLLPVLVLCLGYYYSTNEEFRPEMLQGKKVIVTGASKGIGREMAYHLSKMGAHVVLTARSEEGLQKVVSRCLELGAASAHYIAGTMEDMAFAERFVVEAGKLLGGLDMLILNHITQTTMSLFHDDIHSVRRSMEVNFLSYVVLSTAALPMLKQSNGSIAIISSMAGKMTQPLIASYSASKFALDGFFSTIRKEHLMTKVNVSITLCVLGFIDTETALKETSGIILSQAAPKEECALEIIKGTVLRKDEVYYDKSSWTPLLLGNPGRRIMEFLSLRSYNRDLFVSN
experimental-endpoint: pIC50
# log scale: pIC50 equals minus log10 of the concentration in mol/L

The recorded pIC50 for entry CS(=O)(=O)NCCC(=O)N1CCC(c2cc(C(=O)N3CCC[C@H]4CCCC[C@H]43)cs2)CC1 equals 6.54
